Test system: NCI-H460 lung
Experiment: NCI-60 one-dose screen, 48 h
Settings: 10 µM unless noted
This is part of a sample that, as a whole, favours compounds with a hit. Of some 83,000 tested, about 20% had one in any assay. Calls of active or inactive are those of the source. The calls were made as follows: active = growth percent below 10; inactive = the rest.
Outcomes: active, inactive

> print(dat)
                                    compound  qualitative.label
 1  O=C1CC(c2ccccc2)Cc2nc3ccc(Cl)cc3cc21 (stereo not given)             active
 2                  CC(=O)n1cc(C=O)c2ccccc21           inactive
 3                  Oc1ccc(N=Nc2nccs2)c(O)c1           inactive
 4  COc1ccc2nc3cc(Cl)ccc3c(Nc3ccc(O)c(CN4CCCC4)c3)c2c1             active
 5  CCCCCn1c(C)cc(/C=C\c2ccc3cc(C)ccc3[n+]2C)c1C             active
 6  Cc1nc(Cl)c2c(n1)N(C)c1ccc(Cl)cc1C(C)C2 (stereo not given)           inactive
 7  COc1ccc2c(c1)C(C)Cc1c(Cl)ncnc1N2C (stereo not given)           inactive
 8  C=C(C)[C@@H]1CC[C@]2(C(N)=O)CC[C@]3(C)[C@H](CC[C@@H]4[C@@]5(C)C/C(=C/c6cccnc6)[C@H](O)C(C)(C)[C@@H]5CC[C@]43C)[C@@H]12             active
 9  CC1Cc2ccc(OCCN(C)C)cc2C1=O (stereo not given)           inactive
10  CC1(C)[C@@H](NOCCCN)CC[C@]2(C)[C@H]3C(=O)C=C4[C@@H]5C[C@](C)(C(=O)O)CC[C@]5(C)CC[C@@]4(C)[C@]3(C)CC[C@@H]12             active

###

Tested on: OVCAR-8 ovarian
Test: NCI-60 one-dose screen, 48 h (100 = growth as untreated, 0 = no growth, -100 = all killed)
Conditions: 10 µM unless noted
About 83,000 compounds went through this panel and 20% of them were active in at least one assay; those are over-represented in the sample as a whole. Activity calls are given as the source filed them. Rule for the calls: active = growth percent below 10; inactive = the rest.
Listing of recorded growth by entry.
experimental-readout: growth

> print(dat)
                                query.smiles        tested.on  experimental.readout            result
 1  Clc1ccc(N2CCN(CCCN3CCN(c4cccc(Cl)c4)CC3)CC2)cc1  OVCAR-8 ovarian                growth  70.7% (inactive)
 2  C#C[C@]1(O)CC[C@H]2[C@@H]3CC=C4c5nc(Nc6ncccn6)sc5CC[C@]4(C)[C@H]3CC[C@@]21C  OVCAR-8 ovarian                growth    77% (inactive)
 3            COc1cc2c(cc1OC(C)=O)C(=O)CCCC2  OVCAR-8 ovarian                growth  98.3% (inactive)
 4   Cn1cc(-c2nnc(-c3ccccc3)s2)c2cc(Br)cnc21  OVCAR-8 ovarian                growth  94.4% (inactive)
 5       Clc1ccc(/C=N/Nc2nc3ccccc3s2)c(Cl)c1  OVCAR-8 ovarian                growth  79.3% (inactive)
 6  O=C(OCc1ccc2c(Cl)cc(Cl)c(O)c2n1)N1CCNCC1  OVCAR-8 ovarian                growth  28.7% (inactive)
 7  N=C(N)c1ccc(-c2ccc(-c3ccc(-c4cccs4)s3)s2)cc1F  OVCAR-8 ovarian                growth   102% (inactive)
 8  O=C(CSc1nc2ccc([N+](=O)[O-])cc2[nH]1)Nc1ccc(F)c(Cl)c1  OVCAR-8 ovarian                growth  15.5% (inactive)
 9  N/C(=N\c1nc2ccccc2[nH]1)NC(=O)Cc1cccc2ccccc12  OVCAR-8 ovarian                growth  27.5% (inactive)
10  COc1cc(OC)c(/C=C/C(=O)c2c(N)cc(OC)cc2OC)c(OC)c1  OVCAR-8 ovarian                growth  19.9% (inactive)
